Target: T1, MCL-1 (Mus musculus, UniProt P97287)
T1 chain: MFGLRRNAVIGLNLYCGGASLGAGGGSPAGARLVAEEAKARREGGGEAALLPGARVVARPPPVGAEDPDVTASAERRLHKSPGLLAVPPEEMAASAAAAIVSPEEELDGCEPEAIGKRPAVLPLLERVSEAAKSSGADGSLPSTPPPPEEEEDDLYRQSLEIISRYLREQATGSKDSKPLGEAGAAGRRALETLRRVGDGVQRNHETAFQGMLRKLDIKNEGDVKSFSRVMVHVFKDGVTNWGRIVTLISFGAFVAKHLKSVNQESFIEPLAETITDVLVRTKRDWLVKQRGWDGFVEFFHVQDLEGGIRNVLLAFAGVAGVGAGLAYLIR
Assay: surface plasmon resonance

| binder | Kd / µM |
| --- | --- |
| GRLAEVCTVLLRLGDELEQIRPSVY [BOK BH3 peptide BH3] | 3.44 |
| EDIIRNIARHLAQVGDSMDRSI [BID BH3 peptide] | 0.134 |
